Catalogue of viability, T/C values
# System: 616215-338-R-J1-PDC complex spheroid viability
# Test: Anticancer human tumor 616215-338-R-J1-PDC patient-derived colon adenocarcinoma cell line growth inhibition [POLQ]
# Measurement context: second compound 1 µM; first compound 0.1 µM; active compounds read low

Compound: COc1cc2cc(C(=O)CCC(=O)O)sc2cc1OC + Nc1ccc(C#CCN(C(=O)Cc2ncc(C(F)(F)F)cc2C(F)(F)F)c2ccc(F)cc2)nn1
System tested: 616215-338-R-J1-PDC complex spheroid viability
viability, T/C (%): 102

Compound: COc1cccc(OCCCN)c1-c1cc(Nc2cnc(C#N)cn2)n[nH]1 + COC1C(OC(N)=O)C(O)C(Oc2ccc3c(O)c(NC(=O)c4ccc(O)c(CC=C(C)C)c4)c(=O)oc3c2C)OC1(C)C
System tested: 616215-338-R-J1-PDC complex spheroid viability
viability, T/C (%): 75.3

Compound: COc1ccc([C@@H](O)c2cc(-c3ncnc4cc(N5CCOCC5)ccc34)c(F)cc2Cl)nn1 + COC1C(OC(N)=O)C(O)C(Oc2ccc3c(O)c(NC(=O)c4ccc(O)c(CC=C(C)C)c4)c(=O)oc3c2C)OC1(C)C
System tested: 616215-338-R-J1-PDC complex spheroid viability
viability, T/C (%): 101

Compound: COc1cc(C2c3cc4c(cc3C(OC3OC5COC(C)OC5C(O)C3O)C3COC(=O)C23)OCO4)cc(OC)c1O (stereo unspecified) + COC1C(OC(N)=O)C(O)C(Oc2ccc3c(O)c(NC(=O)c4ccc(O)c(CC=C(C)C)c4)c(=O)oc3c2C)OC1(C)C
System tested: 616215-338-R-J1-PDC complex spheroid viability
viability, T/C (%): 113

Compound: COc1cccc(OCCCN)c1-c1cc(Nc2cnc(C#N)cn2)n[nH]1 + Cc1cccc(N(C)C(=O)C2C(O)CCN2c2nc(C)cc(C(F)(F)F)c2C#N)c1
System tested: 616215-338-R-J1-PDC complex spheroid viability
viability, T/C (%): 41.3

Compound: CC1COCCN1c1cc(-c2ccnn2C)c2ccnc(-c3ccn[nH]3)c2n1 (stereo unspecified) + Cc1cccc(N(C)C(=O)C2C(O)CCN2c2nc(C)cc(C(F)(F)F)c2C#N)c1
System tested: 616215-338-R-J1-PDC complex spheroid viability
viability, T/C (%): 91

Compound: CCc1c2c(nc3ccc(O)cc13)-c1cc3c(c(=O)n1C2)COC(=O)[C@]3(O)CC + Nc1ccc(C#CCN(C(=O)Cc2ncc(C(F)(F)F)cc2C(F)(F)F)c2ccc(F)cc2)nn1
System tested: 616215-338-R-J1-PDC complex spheroid viability
viability, T/C (%): 28.9

Compound: O=C(c1cc(Cc2n[nH]c(=O)c3ccccc23)ccc1F)N1CCN(C(=O)C2CC2)CC1 + Cc1cccc(N(C)C(=O)C2C(O)CCN2c2nc(C)cc(C(F)(F)F)c2C#N)c1
System tested: 616215-338-R-J1-PDC complex spheroid viability
viability, T/C (%): 106

Compound: CC1COCCN1c1cc(C2(O)CC3CCC(C2)O3)c2cnn(-c3ccn[nH]3)c2n1 (stereo unspecified) + COC1C(OC(N)=O)C(O)C(Oc2ccc3c(O)c(NC(=O)c4ccc(O)c(CC=C(C)C)c4)c(=O)oc3c2C)OC1(C)C
System tested: 616215-338-R-J1-PDC complex spheroid viability
viability, T/C (%): 90.6

Compound: O=C(Nc1ccc(O)c(NS(=O)(=O)c2ccc(F)cc2)c1)c1ccc(-c2ccccc2)cc1 + COC1C(OC(N)=O)C(O)C(Oc2ccc3c(O)c(NC(=O)c4ccc(O)c(CC=C(C)C)c4)c(=O)oc3c2C)OC1(C)C
System tested: 616215-338-R-J1-PDC complex spheroid viability
viability, T/C (%): 107

Compound: COc1cc(C2c3cc4c(cc3C(OC3OC5COC(C)OC5C(O)C3O)C3COC(=O)C23)OCO4)cc(OC)c1O (stereo unspecified) + Cc1cccc(N(C)C(=O)C2C(O)CCN2c2nc(C)cc(C(F)(F)F)c2C#N)c1
System tested: 616215-338-R-J1-PDC complex spheroid viability
viability, T/C (%): 96.5

Compound: CC1COCCN1c1cc(-c2ccnn2C)c2ccnc(-c3ccn[nH]3)c2n1 (stereo unspecified) + Nc1ccc(C#CCN(C(=O)Cc2ncc(C(F)(F)F)cc2C(F)(F)F)c2ccc(F)cc2)nn1
System tested: 616215-338-R-J1-PDC complex spheroid viability
viability, T/C (%): 52.9

Compound: O=c1[nH]cc(F)c(=O)[nH]1 + Nc1ccc(C#CCN(C(=O)Cc2ncc(C(F)(F)F)cc2C(F)(F)F)c2ccc(F)cc2)nn1
System tested: 616215-338-R-J1-PDC complex spheroid viability
viability, T/C (%): 89.7

Compound: CNCc1ccc(-c2[nH]c3cc(F)cc4c3c2CCNC4=O)cc1 + Nc1ccc(C#CCN(C(=O)Cc2ncc(C(F)(F)F)cc2C(F)(F)F)c2ccc(F)cc2)nn1
System tested: 616215-338-R-J1-PDC complex spheroid viability
viability, T/C (%): 94.8

Compound: CC(C)n1c(=O)n(C)c2cnc3cc(F)c(-c4ccc(OCCCN5CCCCC5)nc4)cc3c21 + Cc1cccc(N(C)C(=O)C2C(O)CCN2c2nc(C)cc(C(F)(F)F)c2C#N)c1
System tested: 616215-338-R-J1-PDC complex spheroid viability
viability, T/C (%): 99.8

Compound: O=C(Nc1ccc(O)c(NS(=O)(=O)c2ccc(F)cc2)c1)c1ccc(-c2ccccc2)cc1 + Cc1cccc(N(C)C(=O)C2C(O)CCN2c2nc(C)cc(C(F)(F)F)c2C#N)c1
System tested: 616215-338-R-J1-PDC complex spheroid viability
viability, T/C (%): 99.8

Compound: CCCS(=O)(=O)Nc1ccc(F)c(C(=O)c2c[nH]c3ncc(-c4ccc(Cl)cc4)cc23)c1F + COC1C(OC(N)=O)C(O)C(Oc2ccc3c(O)c(NC(=O)c4ccc(O)c(CC=C(C)C)c4)c(=O)oc3c2C)OC1(C)C
System tested: 616215-338-R-J1-PDC complex spheroid viability
viability, T/C (%): 103

Compound: CC[C@@]1(O)C(=O)OCc2c1cc1n(c2=O)Cc2cc3c(CN(C)C)c(O)ccc3nc2-1 + Nc1ccc(C#CCN(C(=O)Cc2ncc(C(F)(F)F)cc2C(F)(F)F)c2ccc(F)cc2)nn1
System tested: 616215-338-R-J1-PDC complex spheroid viability
viability, T/C (%): 41.1

Compound: CNCc1ccc(-c2[nH]c3cc(F)cc4c3c2CCNC4=O)cc1 + Cc1cccc(N(C)C(=O)C2C(O)CCN2c2nc(C)cc(C(F)(F)F)c2C#N)c1
System tested: 616215-338-R-J1-PDC complex spheroid viability
viability, T/C (%): 108

Compound: CCc1cc2c(N3CCc4c(cc(Cn5ccnc5)cc4-c4cn(C)nc4C(F)(F)F)C3=O)cc(C)nc2c(OC)n1 + COC1C(OC(N)=O)C(O)C(Oc2ccc3c(O)c(NC(=O)c4ccc(O)c(CC=C(C)C)c4)c(=O)oc3c2C)OC1(C)C
System tested: 616215-338-R-J1-PDC complex spheroid viability
viability, T/C (%): 105

Compound: C=CC(=O)N1CCN(c2nc(=O)n(-c3c(C)ccnc3C(C)C)c3nc(-c4c(O)cccc4F)c(F)cc23)C(C)C1 (stereo unspecified) + Cc1cccc(N(C)C(=O)C2C(O)CCN2c2nc(C)cc(C(F)(F)F)c2C#N)c1
System tested: 616215-338-R-J1-PDC complex spheroid viability
viability, T/C (%): 86

====

Catalogue of viability, T/C values
# Test system: 616215-338-R-J1-PDC complex spheroid viability
# Test: Anticancer human tumor 616215-338-R-J1-PDC cell line growth inhibition [POLQ];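 note: spheroids exposed to compounds for one week before readout; percent viability relative to DMSO vehicle wells taken as 100%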
# Measurement context: second compound 1 µM; first compound 0.0316 µM; active compounds read low

Compound: COc1cccc2c1C(=O)c1c(O)c3c(c(O)c1C2=O)CC(O)(C(=O)CO)CC3OC1CC(N)C(O)C(C)O1 (configuration not stated) + Cc1cccc(N(C)C(=O)C2C(O)CCN2c2nc(C)cc(C(F)(F)F)c2C#N)c1
System tested: 616215-338-R-J1-PDC complex spheroid viability
Display unit: %
viability, T/C: 111
//
Compound: CC(C)n1c(=O)n(C)c2cnc3cc(F)c(-c4ccc(OCCCN5CCCCC5)nc4)cc3c21 + Nc1ccc(C#CCN(C(=O)Cc2ncc(C(F)(F)F)cc2C(F)(F)F)c2ccc(F)cc2)nn1
System tested: 616215-338-R-J1-PDC complex spheroid viability
Display unit: %
viability, T/C: 107
//
Compound: CCCS(=O)(=O)Nc1ccc(F)c(C(=O)c2c[nH]c3ncc(-c4ccc(Cl)cc4)cc23)c1F + Cc1cccc(N(C)C(=O)C2C(O)CCN2c2nc(C)cc(C(F)(F)F)c2C#N)c1
System tested: 616215-338-R-J1-PDC complex spheroid viability
Display unit: %
viability, T/C: 99.5
//
Compound: O=c1[nH]cc(F)c(=O)[nH]1 + Cc1cccc(N(C)C(=O)C2C(O)CCN2c2nc(C)cc(C(F)(F)F)c2C#N)c1
System tested: 616215-338-R-J1-PDC complex spheroid viability
Display unit: %
viability, T/C: 106
//
Compound: CC(C)n1c(=O)n(C)c2cnc3cc(F)c(-c4ccc(OCCCN5CCCCC5)nc4)cc3c21 + COC1C(OC(N)=O)C(O)C(Oc2ccc3c(O)c(NC(=O)c4ccc(O)c(CC=C(C)C)c4)c(=O)oc3c2C)OC1(C)C
System tested: 616215-338-R-J1-PDC complex spheroid viability
Display unit: %
viability, T/C: 117
//
Compound: COc1cc(C2c3cc4c(cc3C(OC3OC5COC(C)OC5C(O)C3O)C3COC(=O)C23)OCO4)cc(OC)c1O (configuration not stated) + Nc1ccc(C#CCN(C(=O)Cc2ncc(C(F)(F)F)cc2C(F)(F)F)c2ccc(F)cc2)nn1
System tested: 616215-338-R-J1-PDC complex spheroid viability
Display unit: %
viability, T/C: 98.4
//
Compound: CCCS(=O)(=O)Nc1ccc(F)c(C(=O)c2c[nH]c3ncc(-c4ccc(Cl)cc4)cc23)c1F + COC1C(OC(N)=O)C(O)C(Oc2ccc3c(O)c(NC(=O)c4ccc(O)c(CC=C(C)C)c4)c(=O)oc3c2C)OC1(C)C
System tested: 616215-338-R-J1-PDC complex spheroid viability
Display unit: %
viability, T/C: 113
//
Compound: CCc1cc2c(N3CCc4c(cc(Cn5ccnc5)cc4-c4cn(C)nc4C(F)(F)F)C3=O)ccnc2c(OC)n1 + Nc1ccc(C#CCN(C(=O)Cc2ncc(C(F)(F)F)cc2C(F)(F)F)c2ccc(F)cc2)nn1
System tested: 616215-338-R-J1-PDC complex spheroid viability
Display unit: %
viability, T/C: 111
//
Compound: Cn1ncnc1[C@H]1c2n[nH]c(=O)c3cc(F)cc(c23)N[C@@H]1c1ccc(F)cc1 + Cc1cccc(N(C)C(=O)C2C(O)CCN2c2nc(C)cc(C(F)(F)F)c2C#N)c1
System tested: 616215-338-R-J1-PDC complex spheroid viability
Display unit: %
viability, T/C: 115
//
Compound: CC[C@@]1(O)C(=O)OCc2c1cc1n(c2=O)Cc2cc3c(CN(C)C)c(O)ccc3nc2-1 + Nc1ccc(C#CCN(C(=O)Cc2ncc(C(F)(F)F)cc2C(F)(F)F)c2ccc(F)cc2)nn1
System tested: 616215-338-R-J1-PDC complex spheroid viability
Display unit: %
viability, T/C: 66.1
//
Compound: O=c1[nH]cc(F)c(=O)[nH]1 + COC1C(OC(N)=O)C(O)C(Oc2ccc3c(O)c(NC(=O)c4ccc(O)c(CC=C(C)C)c4)c(=O)oc3c2C)OC1(C)C
System tested: 616215-338-R-J1-PDC complex spheroid viability
Display unit: %
viability, T/C: 95.8
//
Compound: COc1cccc(OCCCN)c1-c1cc(Nc2cnc(C#N)cn2)n[nH]1 + COC1C(OC(N)=O)C(O)C(Oc2ccc3c(O)c(NC(=O)c4ccc(O)c(CC=C(C)C)c4)c(=O)oc3c2C)OC1(C)C
System tested: 616215-338-R-J1-PDC complex spheroid viability
Display unit: %
viability, T/C: 89.2
